# ASSAY EXPLANATION: The drug is tested on Z-018 corresponding to pig gut metagenome with ENA study accession number: PRJEB37062 and ENA sample accession number: ERS12561817 for biotransformation under anaerobic condition. The drug concentrations were measured over 9 timepoints collected between 0 and 24 hours of incubation by liquid-chromatography-coupled mass spectrometry (LC–MS); further: call rule not given here
# MEASUREMENT CONTEXT: 2 µM
VALUE TYPE: Bacterial Biotransformation

# MOLECULE, Bacterial Biotransformation
data = [
    ("C#C[C@]1(OC(C)=O)CC[C@H]2[C@@H]3CCC4=C[C@@H](OC(C)=O)CC[C@@H]4[C@H]3CC[C@@]21C [ETHYNODIOL DIACETATE]", "Compound metabolized"),
    ("CN1C[C@H](C(=O)N[C@]2(C)O[C@@]3(O)[C@@H]4CCCN4C(=O)[C@H](Cc4ccccc4)N3C2=O)C[C@@H]2c3cccc4[nH]cc(c34)C[C@H]21.CS(=O)(=O)O [DIHYDROERGOTAMINE MESYLATE]", "Compound NOT metabolized"),
    ("CN1CCN2c3ccccc3Cc3ccccc3C2C1 (stereo not drawn) [MIANSERIN]", "Compound metabolized"),
    ("CC#C[C@]1(O)CC[C@H]2[C@@H]3CCC4=CC(=O)CCC4=C3[C@@H](c3ccc(N(C)C)cc3)C[C@@]21C [MIFEPRISTONE]", "Compound metabolized"),
    ("CC(=O)OCC(=O)NCCCOc1cccc(CN2CCCCC2)c1 [ROXATIDINE ACETATE]", "Compound metabolized"),
]

Data request: Please list Bacterial Biotransformation recorded for the molecule CC(C)(C)NC[C@H](O)COc1nsnc1N1CCOCC1.O=C(O)/C=C\C(=O)O [TIMOLOL MALEATE]
Data returned: Compound NOT metabolized

Data request: Please list Bacterial Biotransformation recorded for the molecule CCN1CCCC1CNC(=O)c1cc(S(=O)(=O)CC)c(N)cc1OC (stereo not drawn) [AMISULPRIDE]
Data returned: Compound NOT metabolized

Data request: Please list Bacterial Biotransformation recorded for the molecule C=CC[C@@H]1/C=C(\C)C[C@H](C)C[C@H](OC)[C@H]2O[C@@](O)(C(=O)C(=O)N3CCCC[C@H]3C(=O)O[C@H](/C(C)=C/[C@@H]3CC[C@@H](O)[C@H](OC)C3)[C@H](C)[C@@H](O)CC1=O)[C@H](C)C[C@@H]2OC.O [TACROLIMUS]
Data returned: Compound NOT metabolized
